Data origin, for the record: paper PMC12154555

ASSAY_OVERVIEW: Cytotoxicity assay (XTT), A549 cells
Assay type: cell-based, human
REPORTED_CONDITIONS: human, A549 cells; 48 hours, XTT; read-out: CC50 cytotoxicity A549
OBSERVABLE: CC50 at 48 h

Tell me its CC50 at 48 h given O=c1cc(-c2ccc(O)c(O)c2)oc2cc(O)cc(O)c12 [Luteolin, luteolin, reference compound] as the entry.
> 50 µM

====

TARGET_OR_TEST_SYSTEM: influenza A polymerase (Influenza A virus)
ASSAY_OVERVIEW: cell-based
Design: species or system influenza A/WSN/33 H1N1
REPORTED_CONDITIONS: read-out: EC50 minireplicon A549
Reported EC50 by item:
The answer is to be given in nM; state only the numeric part.

// known answers, use as guide
O=c1[nH]c(-c2cc(O)c3c(O)cc(O)cc3c2)ncc1O [Compound 36]	1800
O=c1cc(-c2ccc(O)c(O)c2)oc2cc(O)cc(O)c12 [Luteolin, luteolin, reference compound]	9200
Oc1cc(O)c2c(O)cc(-c3ccc(O)c(O)c3)cc2c1 [Compound 24]	800
O=c1cc(-c2cc(O)c3c(O)cc(O)cc3c2)[nH]cc1O [Compound 33]	2800

Please report EC50 with influenza A polymerase (Influenza A virus) for item O=c1[nH]c(-c2cc(O)c3c(O)cc(O)cc3c2)cnc1O [Compound 34] .
1700

====

ASSAY_OVERVIEW: Cytotoxicity assay (XTT), HEK 293T cells
Format: cell-based
REPORTED_CONDITIONS: human, HEK 293T cells; 48 hours, XTT; read-out: CC50 cytotoxicity HEK 293T
OBSERVABLE: CC50 at 48 h

Quickly give me recorded CC50 at 48 h for O=c1cc(-c2ccc(O)c(O)c2)oc2cc(O)cc(O)c12 [Luteolin, luteolin, reference compound]
> 50 µM

====

Tested on: MDCK cells
ASSAY_OVERVIEW: Cytotoxicity assay (XTT), MDCK cells
Format: cell-based, canine
OBSERVABLE: CC50
The answer consists of two parts: a number and, after it, its unit.

Print MDCK cells CC50 for O=C1c2c(O)c(=O)ccn2N([C@@H]2c3ccccc3SCc3c2ccc(F)c3F)[C@@H]2COCCN12 [BXA, baloxavir acid, reference compound] .
5 µM

====

ASSAY_OVERVIEW: Cytotoxicity assay (XTT), MDCK cells
Assay type: cell-based, canine
REPORTED_CONDITIONS: dog, MDCK cells; 48 hours, XTT; read-out: CC50 cytotoxicity MDCK
OBSERVABLE: CC50 at 48 h

Provide measured CC50 at 48 h value, entry: O=c1cc(-c2ccc(O)c(O)c2)oc2cc(O)cc(O)c12 [Luteolin, luteolin, reference compound]
> 50 µM

====

TARGET_OR_TEST_SYSTEM: influenza A polymerase (Influenza A virus)
ASSAY_OVERVIEW: cell-based
Type: cell-based, influenza A/WSN/33 H1N1
REPORTED_CONDITIONS: read-out: EC50 minireplicon HEK 293T
OBSERVABLE: pEC50
// scale note: pEC50 = -log10(conc_M); give the bare number

O=c1cc(-c2cc(O)c3c(O)cc(O)cc3c2)[nH]cc1O	5.68
O=c1[nH]c(-c2cc(O)c3c(O)cc(O)cc3c2)ncc1O	5.85
Oc1cc(O)c2c(O)cc(-c3ccc(O)c(O)c3)cc2c1	5.96

Alright, here's another compound for you.
Give the reported pEC50 for this compound. O=c1[nH]c(-c2cc(O)c3c(O)cc(O)cc3c2)cnc1O
5.74
